system: HL-60; test: Antiproliferative activity against human HL60 cells assessed as cellular growth inhibition at 10 uM after 72 hrs by MTS assay; format: functional; conditions: HL-60, 72 h, read-out: GI
Each entry below carries its reported inhibition of growth at 10 µM.
result-type: inhibition of growth at 10 µM (%)

COC(=O)C1(Cc2ccc3c(c2)OCO3)CC(=O)OC1c1ccccc1 (mixture of isomers); 18
COC(=O)C1(Cc2ccc(OC)cc2)CC(=O)OC1c1ccc(C(F)(F)F)cc1 (mixture of isomers); 2
COC(=O)C1(Cc2ccc(OC)cc2)CC(=O)OC1c1ccc(F)cc1 (mixture of isomers); 37
COC(=O)C1(Cc2cccc(C(F)(F)F)c2)CC(=O)OC1c1ccccc1 (mixture of isomers); 34
COC(=O)[C@@]1(Cc2ccc(OC)cc2)CC(=O)O[C@]1(C)c1ccccc1; 68
CCC1(c2ccccc2)OC(=O)CC1(Cc1ccc(OC)cc1)C(=O)OC (mixture of isomers); 30

###

tested on: HL-60; assay: Antiproliferative activity against human HL60 cells assessed as cellular growth inhibition at 10 uM after 72 hrs by MTS assay; format: functional; conditions: HL-60, 72 h, read-out: GI
Readings of inhibition of growth at 10 µM for the listed molecules
result-type: inhibition of growth at 10 µM (%)

COC(=O)C1(Cc2ccc(OC)cc2)CC(=O)OC1(C)c1ccccc1 (mixture of isomers); 82
COC(=O)C1(Cc2ccc(OC)cc2)CC(=O)OC1c1ccccc1C(F)(F)F (mixture of isomers); 23
COC(=O)C1(Cc2ccc(OC)cc2)CC(=O)OC1c1ccco1 (mixture of isomers); 29
COC(=O)C1(Cc2ccccc2)CC(=O)OC12CCCCC2 (racemic); 4
COC(=O)C1(Cc2ccccc2)CC(=O)OC1(C)c1ccccc1 (mixture of isomers); 22
COC(=O)C1(Cc2ccc(OC)cc2)CC(=O)OC1(C)c1cccc(C(F)(F)F)c1 (mixture of isomers); 52
COC(=O)C1(Cc2cccc(C(F)(F)F)c2)CC(=O)OC1(C)c1ccccc1 (mixture of isomers); 21
COC(=O)C1(Cc2ccccc2)CC(=O)OC1c1ccccc1 (mixture of isomers); 22

###

system: KB; assay: Antiproliferative activity against human KB cells assessed as cellular growth inhibition at 10 uM after 72 hrs by MTS assay; format: functional; settings: read-out: GI
Categorize each record by its inhibition of growth at 10 µM using low = under 10%, moderate = from 10% up to 30%, high = 30% and over

COC(=O)C1(Cc2ccc(OC)cc2)CC(=O)OC1c1ccccc1 (mixture of isomers); moderate
COC(=O)[C@@]1(Cc2ccc(OC)cc2)CC(=O)O[C@]1(C)c1ccccc1; high
COC(=O)C1(Cc2ccc(OC)cc2)CC(=O)OC1c1ccccc1C(F)(F)F (mixture of isomers); high
COC(=O)C1(Cc2ccc(OC)cc2)CC(=O)OC1(C)c1ccccc1 (mixture of isomers); high
COC(=O)C1(Cc2ccccc2)CC(=O)OC1(C)c1ccccc1 (mixture of isomers); low
COC(=O)C1(Cc2ccc(OC)cc2)CC(=O)OC1c1ccco1 (mixture of isomers); high
COC(=O)C1(Cc2ccccc2)CC(=O)OC1c1ccccc1 (mixture of isomers); moderate
COC(=O)C1(Cc2ccc(OC)cc2)CC(=O)OC1(c1ccccc1)C(F)(F)F (mixture of isomers); high
CCC1(c2ccccc2)OC(=O)CC1(Cc1ccc(OC)cc1)C(=O)OC (mixture of isomers); moderate
COC(=O)C1(Cc2ccccc2)CC(=O)OC12CCCCC2 (racemic); low
COC(=O)C1(Cc2ccc(OC)cc2)CC(=O)OC1(C)c1cccc(C(F)(F)F)c1 (mixture of isomers); high
COC(=O)C1(Cc2cccc(C(F)(F)F)c2)CC(=O)OC1c1ccccc1 (mixture of isomers); high
COC(=O)C1(Cc2ccc(OC)cc2)CC(=O)OC1c1ccc(C(F)(F)F)cc1 (mixture of isomers); low
COC(=O)C1(Cc2cccc(C(F)(F)F)c2)CC(=O)OC1(C)c1ccccc1 (mixture of isomers); moderate
CCCCCCC1OC(=O)CC1(Cc1ccc(OC)cc1)C(=O)OC (mixture of isomers); moderate
COC(=O)C1(Cc2ccc3c(c2)OCO3)CC(=O)OC1c1ccccc1 (mixture of isomers); low
COC(=O)c1ccc(CC2(C(=O)OC)CC(=O)OC2c2ccccc2)cc1 (mixture of isomers); moderate
COC(=O)C1(Cc2ccc(OC)cc2)CC(=O)OC1c1ccc(F)cc1 (mixture of isomers); high

###

system: HL-60; test: Antiproliferative activity against human HL60 cells assessed as cellular growth inhibition at 10 uM after 72 hrs by MTS assay; type: functional; conditions: HL-60, 72 h, read-out: GI
Below, each entry is listed with its recorded inhibition of growth at 10 µM.
result-type: inhibition of growth at 10 µM (%)

COC(=O)C1(Cc2ccc(OC)cc2)CC(=O)OC1c1ccccc1 (mixture of isomers); 15
CCCCCCC1OC(=O)CC1(Cc1ccc(OC)cc1)C(=O)OC (mixture of isomers); 8
COC(=O)c1ccc(CC2(C(=O)OC)CC(=O)OC2c2ccccc2)cc1 (mixture of isomers); 19
COC(=O)C1(Cc2ccc(OC)cc2)CC(=O)OC1(c1ccccc1)C(F)(F)F (mixture of isomers); 64
